Quick list: solubility (maximum solubility) per entry.
assay: Maximum solubility in fibrillization buffer; assay type: physicochemical; conditions: 50 mM Na2HPO4 buffer (pH 7.4), UV-Vis absorption (ε = 49310 M-1cm-1 at 205 nm for PTH25-37, ε = 13000 M-1cm-1 at 327 nm for 3,4'-AMPB peptides)
Starred links: 1 amine or outer side, 2 acyl side, 3 side chain; linkers in the order of their positions; H or OH if unused. Non-standard residues stand in square brackets, D forms with d. Residues, ends and D or L forms follow the SMILES beside them. X3 = O=C(c1cccc(N=Nc2ccc(CN[*:1])cc2)c1)[*:2]
The response must be a number in µM with no trailing unit.

Here is how some compounds turned out for solubility (maximum solubility).
compound="CC(C)C[C@H](NC(=O)[C@H](C)NC(=O)[C@@H](NC(=O)[C@H](Cc1ccccc1)NC(=O)[C@H](CC(N)=O)NC(=O)[C@H](Cc1c[nH]cn1)NC(=O)c1cccc(N=Nc2ccc(CNC(=O)[C@H](CC(=O)O)NC(=O)[C@H](CCC(N)=O)NC(=O)[C@H](CC(C)C)NC(=O)[C@H](CCCCN)NC(=O)[C@H](CCCCN)NC(=O)[C@@H](N)CCCNC(=N)N)cc2)c1)C(C)C)C(=O)O [AzoPTH25–37] (H-RKKLQD[X3]HNFVAL-OH)" units_of_measure=µM value_observed=240
compound="CC(C)C[C@H](NC(=O)[C@H](C)NC(=O)[C@@H](NC(=O)[C@H](Cc1ccccc1)NC(=O)[C@H](CC(N)=O)NC(=O)[C@H](Cc1c[nH]cn1)NC(=O)[C@@H](NC(=O)c1cccc(N=Nc2ccc(CNC(=O)[C@H](CCC(N)=O)NC(=O)[C@H](CC(C)C)NC(=O)[C@H](CCCCN)NC(=O)[C@H](CCCCN)NC(=O)[C@@H](N)CCCNC(=N)N)cc2)c1)C(C)C)C(C)C)C(=O)O [SP3] (H-RKKLQ[X3]VHNFVAL-OH)" units_of_measure=µM value_observed=35
compound="CC(C)C[C@H](NC(=O)[C@H](C)NC(=O)[C@@H](NC(=O)[C@H](Cc1ccccc1)NC(=O)[C@H](CC(N)=O)NC(=O)[C@H](Cc1c[nH]cn1)NC(=O)c1cccc(N=Nc2ccc(CNC(=O)[C@@H](NC(=O)[C@H](CC(=O)O)NC(=O)[C@H](CCC(N)=O)NC(=O)[C@H](CC(C)C)NC(=O)[C@H](CCCCN)NC(=O)[C@H](CCCCN)NC(=O)[C@@H](N)CCCNC(=N)N)C(C)C)cc2)c1)C(C)C)C(=O)O [SP2] (H-RKKLQDV[X3]HNFVAL-OH)" units_of_measure=µM value_observed=55
compound="CC(C)C[C@H](NC(=O)[C@H](C)NC(=O)[C@@H](NC(=O)[C@H](Cc1ccccc1)NC(=O)[C@H](CC(N)=O)NC(=O)[C@H](Cc1c[nH]cn1)NC(=O)[C@@H](NC(=O)c1cccc(N=Nc2ccc(CNC(=O)[C@H](CC(=O)O)NC(=O)[C@H](CCC(N)=O)NC(=O)[C@H](CC(C)C)NC(=O)[C@H](CCCCN)NC(=O)[C@H](CCCCN)NC(=O)[C@@H](N)CCCNC(=N)N)cc2)c1)C(C)C)C(C)C)C(=O)O [SP1] (H-RKKLQD[X3]VHNFVAL-OH)" units_of_measure=µM value_observed=60

// next item, solubility (maximum solubility) requested
Input: Value lookup for solubility (maximum solubility); key = CC(C)C[C@H](NC(=O)[C@H](C)NC(=O)[C@@H](NC(=O)[C@H](Cc1ccccc1)NC(=O)[C@H](CC(N)=O)NC(=O)[C@H](Cc1c[nH]cn1)NC(=O)c1cccc(N=Nc2ccc(CNC(=O)[C@H](CCC(N)=O)NC(=O)[C@H](CC(C)C)NC(=O)[C@H](CCCCN)NC(=O)[C@H](CCCCN)NC(=O)[C@@H](N)CCCNC(=N)N)cc2)c1)C(C)C)C(=O)O [SP4] (H-RKKLQ[X3]HNFVAL-OH)
Output: 25
